target: EPHB1 (UniProt P54762); assay: phosphorylation enrichment, bacterial display (enrichment ratio); higher = better substrate or ligand; peptides without Tyr show the background;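 further: 11-residue human phosphosite peptides and single-mutation variants displayed on the E. coli surface, counted by deep sequencing, each peptide's frequency after selection divided by its frequency in the unselected input library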;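 further: frequency after pTyr selection over input frequency; kinase dosed for 20-30% of maximal phosphorylation in three min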
Sequence (P54762 whole entry, looked up): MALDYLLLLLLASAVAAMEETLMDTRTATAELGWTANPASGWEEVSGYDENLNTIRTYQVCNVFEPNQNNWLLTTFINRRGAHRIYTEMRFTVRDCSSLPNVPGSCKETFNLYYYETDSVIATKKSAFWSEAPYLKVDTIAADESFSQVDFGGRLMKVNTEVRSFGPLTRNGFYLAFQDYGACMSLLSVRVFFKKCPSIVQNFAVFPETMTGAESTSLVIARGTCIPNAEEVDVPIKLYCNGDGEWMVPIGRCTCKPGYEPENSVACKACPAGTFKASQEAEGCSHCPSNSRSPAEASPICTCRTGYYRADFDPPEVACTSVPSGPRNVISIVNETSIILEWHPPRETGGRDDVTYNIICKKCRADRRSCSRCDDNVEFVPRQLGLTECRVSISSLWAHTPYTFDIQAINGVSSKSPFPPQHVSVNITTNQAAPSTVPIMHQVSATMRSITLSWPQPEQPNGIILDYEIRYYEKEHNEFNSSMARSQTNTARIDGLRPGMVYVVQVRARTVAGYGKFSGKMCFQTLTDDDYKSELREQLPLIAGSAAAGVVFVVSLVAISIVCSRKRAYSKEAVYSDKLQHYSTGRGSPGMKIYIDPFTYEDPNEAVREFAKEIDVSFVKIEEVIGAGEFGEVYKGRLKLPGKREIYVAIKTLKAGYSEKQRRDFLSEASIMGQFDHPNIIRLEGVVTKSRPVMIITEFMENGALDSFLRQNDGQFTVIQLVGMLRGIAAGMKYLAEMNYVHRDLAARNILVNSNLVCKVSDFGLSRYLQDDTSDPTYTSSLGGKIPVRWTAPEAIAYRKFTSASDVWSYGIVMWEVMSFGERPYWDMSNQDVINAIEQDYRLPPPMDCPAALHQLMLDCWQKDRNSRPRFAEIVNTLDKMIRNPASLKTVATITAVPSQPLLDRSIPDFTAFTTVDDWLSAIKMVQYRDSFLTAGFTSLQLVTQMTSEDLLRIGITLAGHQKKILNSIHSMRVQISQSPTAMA
Below, each entry is listed with its recorded phosphorylation enrichment.
MEASURE NAME: phosphorylation enrichment

>>> measurement("ISSLRYELLEE [TRPC6_Y896]")
0.63
>>> measurement("VRFVDYVLFRS [FAM189B_Y361_S358F]")
2.13
>>> measurement("MKKMHYVDPDH [ST3GAL5_Y99]")
0.32
>>> measurement("DLAGRYFALKS [CKB_Y173_YF]")
0.487
>>> measurement("AAILGYCRGEA [XPC_Y669]")
0.567
>>> measurement("NFADPYRQLPF [CTNND2_Y503_Q507P_YF]")
0.432
>>> measurement("ESTPLYPMLFG [SCLY_Y280_F276S]")
0.686
>>> measurement("DNEALYDTCFR [TUBB2B_Y208_I210T]")
2.85
>>> measurement("GASWRYGSGVS [NEU1_Y242]")
0.512
>>> measurement("FGTAQYCCRMG [LRRK2_Y2023_I2020T_YF]")
0.598
>>> measurement("GELQGYDIMEP [MSH2_Y863_S860L]")
0.554
>>> measurement("VLSIDYFFPPQ [AR_Y552_P549S_YF]")
1.08
>>> measurement("MHRRQYELLGG [GNAS_Y391_L388R]")
0.28
>>> measurement("SKLTIYDARPS [MTM1_Y277]")
0.629
>>> measurement("SPFAVYRFFTF [RPGRIP1_Y826_YF]")
0.501
>>> measurement("IVEYAYNDKAI [PUM3_Y259]")
0.705
>>> measurement("GIATGYLVLKE [DNMT3B_Y588]")
0.511
>>> measurement("NSIGNYYKPWF [DHCR24_Y299]")
14.5
>>> measurement("KMATAYIRRMS [BCO1_Y264]")
0.359
>>> measurement("VDLSKCITTIA [FAS_Y232_Y232C]")
0.626
>>> measurement("EPSVPYRGTVF [GLI3_Y104]")
0.447
>>> measurement("IGKAGYTDKMV [ENO1_Y236_V240M]")
0.445
>>> measurement("KELANYFKLHH [AK7_Y390_YF]")
0.727
>>> measurement("GMTRNYIIFIE [BCO2_Y294]")
0.649
>>> measurement("CTTIHYIYMCN [TP53_Y234_N235I]")
0.459
>>> measurement("FRTGHYLCNAC [GATA1_Y223_D218Y_YF]")
0.479
>>> measurement("KLIETYFSKNY [PLP1_Y50]")
0.371
>>> measurement("DEYLEYRRIVG [FAM221A_Y20]")
1.12
>>> measurement("VLVSQYEKLNA [AMZ2_Y26]")
0.524
>>> measurement("RDMNAYIRPSP [MMAA_Y207]")
0.444
>>> measurement("APNEFYDGDHD [HDAC3_Y414]")
0.613
>>> measurement("QELRRYLKSSV [MICA_Y194_G198S]")
0.322
>>> measurement("KLNNEYLELNY [MME_Y497]")
0.925
>>> measurement("RNGNRYFKGIV [DCX_Y64_D62N]")
0.516
>>> measurement("HFECKYVINAI [MAOA_Y268_YF]")
1.14
>>> measurement("EFISEHCGEII [EZH2_Y641_Y641H]")
0.733
>>> measurement("MDQAEYQAKIR [DHX58_Y518]")
0.299
>>> measurement("RLFARYFQGDL [PDK3_Y337_YF]")
0.416
>>> measurement("LTQRTYMSENA [GPAA1_Y49]")
0.364
>>> measurement("ADDSYYTVRSA [ZAP70_Y493_A495V]")
0.709
>>> measurement("HHFAAYFQQGD [GPI_Y351_R347H]")
0.581
>>> measurement("DPADRYLTEQY [CDKL5_Y286_C291Y]")
0.398
>>> measurement("WHHIFYNELRV [ACTG1_Y91_T89I]")
0.663
>>> measurement("DNKALYDICFR [TUBB3_Y208_E205K]")
2.95
>>> measurement("EVLKNYSQQKD [GOLGA4_Y1551_N1552S]")
0.419
>>> measurement("RFFTTYDTNGR [CLCA1_Y665_YF]")
0.726
>>> measurement("RVNSAYQEKVS [ACAN_Y100_D102E]")
0.413
>>> measurement("QEMMEYRHQIQ [DES_Y324]")
0.93
>>> measurement("FQKNVYSEELR [LMNA_Y211_I210V]")
0.456
>>> measurement("RELSWYRGRRP [HESX1_Y106]")
0.484
>>> measurement("QAEELYFGKMG [YES1_Y159_W158L]")
0.861
>>> measurement("DFSLKYATDIP [APC_Y1183_YF]")
0.606
>>> measurement("RELGEYPLAEY [ALDH1A3_Y492_A493P]")
0.484
>>> measurement("RIDPDYVGRVR [IGSF9_Y81]")
0.534
>>> measurement("IKIMGSSIRTI [IDS_Y490_Y490S]")
0.436
>>> measurement("STGSRYQPLAS [NCAPD2_Y1325]")
0.424
>>> measurement("RLGNQYVNVMN [SLC3A1_Y461]")
2.21
>>> measurement("VVQGIYGYHHH [UFSP2_Y285_Y290H]")
0.857
